Reference for the values: paper PMC6910256

Consider the following compounds; for each one, report its kinact/KI.
- TARGET_OR_TEST_SYSTEM: DUSP5 PD (Homo sapiens)
- Sequence (Q16690 178-319 limits assumed): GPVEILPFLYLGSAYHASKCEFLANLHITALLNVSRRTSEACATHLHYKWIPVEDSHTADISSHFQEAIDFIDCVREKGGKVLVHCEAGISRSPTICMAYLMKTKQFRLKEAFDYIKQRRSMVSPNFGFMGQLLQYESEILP
- EXPERIMENT_NOTES: Reaction progress curve analysis of irreversible DUSP5 PD inactivation
- Format: biochemical
- STUDY_CONDITIONS: without DTT, summary of data sets (Table 2)
Answers are plain numbers, in M⁻¹ s⁻¹.

1) O=C1OC2(c3cc(Cl)c(O)cc3Oc3cc(O)c(Cl)cc32)c2ccccc21
0.41
2) O=C1OC2(c3ccccc31)c1cc(I)c(O)c(I)c1Oc1c2cc(I)c(O)c1I
4.65
3) O=C1OC2(c3cc(Br)c(O)cc3Oc3cc(O)c(Br)cc32)c2ccccc21
2.40

Would you mind listing kinact/KI for each of the following compounds?
1. O=C1OC2(c3ccccc31)c1cc(Br)c(O)c(Br)c1Oc1c2cc(Br)c(O)c1Br
2. O=C([O-])c1ccccc1-c1c2cc(Br)c(=O)cc-2oc2[c]([Hg+])c([O-])c(Br)cc12.[Na+].[Na+].[OH-]

Result block:
6.06
47.08
